Assay: Metabolic stability in human liver microsomes (in vitro half-life)
Assay type: in vitro ADME
Conditions: pH 7.4, Table 2, 0.5 mg/mL HLM, 1.0 μM test compound, 2 mM NADPH, 37° C., read-out: t1/2 Run No. 8
Protocol: Human liver microsomes (20 mg/mL) are obtained from Xenotech, LLC (Lenexa, Kans.). β-nicotinamide adenine dinucleotide phosphate, reduced form (NADPH), magnesium chloride (MgCl2), and dimethyl sulfoxide (DMSO) are purchased from Sigma-Aldrich. 7.5 mM stock solutions of test compounds were prepared in DMSO. […] Supernatants were transferred to another 96-well plate and analyzed for amounts of parent remaining by LC-MS/MS using an Applied Bio-systems API 4000 mass spectrometer. […]
# if value of half-life at 1 μM reaches 60 min, tag true; if it stays below, tag false

Consider the following illustrative entries.
INSERT INTO assay_data (molecule, discrete_label) VALUES
  ('[2H]C1([2H])C(C(=O)N2CC(=O)N3CCc4ccccc4C3C2)C([2H])([2H])C([2H])([2H])C([2H])([2H])C1([2H])[2H] (centres unmarked)', 'true'),
  ('O=C(C1CCCCC1)N1CC(=O)N2CCc3ccccc3C2C1 (centres unmarked) [Praziquantel, reference compound]', 'false'),
  ('[2H]C1([2H])CC(C(=O)N2CC(=O)N3CCc4ccccc4C3C2)CC([2H])([2H])C1([2H])[2H] (centres unmarked)', 'false');

Next, consider the following molecule.
Item [2H]C1([2H])C([2H])([2H])C([2H])([2H])C([2H])(C(=O)N2CC(=O)N3CCc4ccccc4C3C2)C([2H])([2H])C1([2H])[2H] (centres unmarked) with half-life at 1 μM of 60 min or above? false

====

Assay: Metabolic stability in human liver microsomes (in vitro half-life)
Assay type: in vitro ADME
Conditions: pH 7.4, Table 1, 0.5 mg/mL HLM, 1.0 μM test compound, 2 mM NADPH, 37° C., read-out: t1/2 Run No. 3
property-measured: half-life at 1 μM (min)
Your answer is read as min, so omit the unit and give the number.

# lookup: half-life at 1 μM of [2H]C1([2H])C([2H])([2H])C([2H])([2H])C([2H])(C(=O)N2CC(=O)N3CCc4ccccc4C3C2)C([2H])([2H])C1([2H])[2H] (centres unmarked) 44.8

Which half-life at 1 μM value belongs to [2H]C1([2H])CCC(C(=O)N2CC(=O)N3CCc4ccccc4C3C2)CC1 (centres unmarked) ? 43.1

====

Assay: Metabolic stability in human liver microsomes (in vitro half-life)
Assay type: in vitro ADME
Conditions: pH 7.4, Table 3, 0.5 mg/mL HLM, 1.0 μM test compound, 2 mM NADPH, 37° C., read-out: Half-life (t½) Run No. 12
// reported half-life at 1 μM for each item listed
Give the value in min but do not write min after it.

Worked examples follow.
INSERT INTO results (compound, property_measured, value_unit, recorded_measurement) VALUES
  ('[2H]C1([2H])C([2H])([2H])C([2H])([2H])C([2H])(C(=O)N2CC(=O)N3CCc4ccccc4[C@@H]3C2)C([2H])([2H])C1([2H])[2H]', 'half-life at 1 μM', 'min', 46),
  ('[2H]C1([2H])CC(C(=O)N2CC(=O)N3CCc4ccccc4[C@@H]3C2)CC([2H])([2H])C1([2H])[2H]', 'half-life at 1 μM', 'min', 55.4),
  ('O=C(C1CCCCC1)N1CC(=O)N2CCc3ccccc3C2C1 (centres unmarked) [Praziquantel, reference compound]', 'half-life at 1 μM', 'min', 30.5),
  ('[2H]C1([2H])CCC(C(=O)N2CC(=O)N3CCc4ccccc4[C@@H]3C2)CC1', 'half-life at 1 μM', 'min', 45.8);

Next:
// half-life at 1 μM lookup, key: [2H]C1([2H])C(C(=O)N2CC(=O)N3CCc4ccccc4[C@@H]3C2)C([2H])([2H])C([2H])([2H])C([2H])([2H])C1([2H])[2H] 55.5

====

Test: Metabolic stability in human liver microsomes (in vitro half-life)
Type: in vitro ADME
Conditions: pH 7.4, Table 1, 0.5 mg/mL HLM, 1.0 μM test compound, 2 mM NADPH, 37° C., read-out: t1/2 Run No. 2
property-measured: half-life at 1 μM

INSERT INTO results (molecule, property_measured, recorded_measurement) VALUES
  ('[2H]C1([2H])CCC(C(=O)N2CC(=O)N3CCc4ccccc4C3C2)CC1 (centres unmarked)', 'half-life at 1 μM', '43.6 min');

Read the next record carefully.
May I ask what half-life at 1 μM has been recorded for [2H]C1([2H])C([2H])([2H])C([2H])([2H])C([2H])(C(=O)N2CC(=O)N3CCc4ccccc4C3C2)C([2H])([2H])C1([2H])[2H] (centres unmarked) ? 55.4 min

====

# maps each entry to its half-life at 1 μM
Experiment: Metabolic stability in human liver microsomes (in vitro half-life)
Assay type: in vitro ADME
Conditions: pH 7.4, Table 3, 0.5 mg/mL HLM, 1.0 μM test compound, 2 mM NADPH, 37° C., read-out: Half-life (t½) Run No. 10
Experimental: Human liver microsomes (20 mg/mL) are obtained from Xenotech, LLC (Lenexa, Kans.). β-nicotinamide adenine dinucleotide phosphate, reduced form (NADPH), magnesium chloride (MgCl2), and dimethyl sulfoxide (DMSO) are purchased from Sigma-Aldrich. 7.5 mM stock solutions of test compounds were prepared in DMSO. […] Supernatants were transferred to another 96-well plate and analyzed for amounts of parent remaining by LC-MS/MS using an Applied Bio-systems API 4000 mass spectrometer. […]
Answer format: numeric, min implied, no suffix.

Answered cases to consult:
INSERT INTO assay_data (compound, value_unit, recorded_measurement) VALUES
  ('[2H]C1([2H])CC(C(=O)N2CC(=O)N3CCc4ccccc4[C@@H]3C2)CC([2H])([2H])C1([2H])[2H]', 'min', 38.7),
  ('[2H]C1([2H])C([2H])([2H])C([2H])([2H])C([2H])(C(=O)N2CC(=O)N3CCc4ccccc4[C@@H]3C2)C([2H])([2H])C1([2H])[2H]', 'min', 53.6),
  ('[2H]C1([2H])CCC(C(=O)N2CC(=O)N3CCc4ccccc4[C@@H]3C2)CC1', 'min', 46.7);

Shift focus to the following entry.
Would you kindly share the measured half-life at 1 μM for O=C(C1CCCCC1)N1CC(=O)N2CCc3ccccc3C2C1 (stereo not shown) [Praziquantel, reference compound] ? 31.5

====

Experiment: Metabolic stability in human liver microsomes (in vitro half-life)
Assay type: in vitro ADME
Conditions: pH 7.4, Table 2, 0.5 mg/mL HLM, 1.0 μM test compound, 2 mM NADPH, 37° C., read-out: t1/2 Run No. 5
Mark condition met for half-life at 1 μM under 60 min, condition not met if at or over.

Here's what some known entries look like.
INSERT INTO results (compound, discrete_label) VALUES
  ('[2H]C1([2H])C(C(=O)N2CC(=O)N3CCc4ccccc4C3C2)C([2H])([2H])C([2H])([2H])C([2H])([2H])C1([2H])[2H] (centres unmarked)', 'condition not met'),
  ('O=C(C1CCCCC1)N1CC(=O)N2CCc3ccccc3C2C1 (centres unmarked) [Praziquantel, reference compound]', 'condition met'),
  ('[2H]C1([2H])CCC(C(=O)N2CC(=O)N3CCc4ccccc4C3C2)CC1 (centres unmarked)', 'condition met'),
  ('[2H]C1([2H])C([2H])([2H])C([2H])([2H])C([2H])(C(=O)N2CC(=O)N3CCc4ccccc4C3C2)C([2H])([2H])C1([2H])[2H] (centres unmarked)', 'condition met');

Lab log: compare recorded half-life at 1 μM with 60 min; is it strictly lower for [2H]C1([2H])CC(C(=O)N2CC(=O)N3CCc4ccccc4C3C2)CC([2H])([2H])C1([2H])[2H] (centres unmarked) ? condition met

====

Test: Metabolic stability in human liver microsomes (in vitro half-life)
Assay type: in vitro ADME
Settings: pH 7.4, Table 2, 0.5 mg/mL HLM, 1.0 μM test compound, 2 mM NADPH, 37° C., read-out: t1/2 Run No. 6
Method: Human liver microsomes (20 mg/mL) are obtained from Xenotech, LLC (Lenexa, Kans.). β-nicotinamide adenine dinucleotide phosphate, reduced form (NADPH), magnesium chloride (MgCl2), and dimethyl sulfoxide (DMSO) are purchased from Sigma-Aldrich. 7.5 mM stock solutions of test compounds were prepared in DMSO. […] Supernatants were transferred to another 96-well plate and analyzed for amounts of parent remaining by LC-MS/MS using an Applied Bio-systems API 4000 mass spectrometer. […]
We begin with a simple list: items and their reported half-life at 1 μM.
Write the answer as a number in min, unit excluded.

Example compounds with recorded half-life at 1 μM:
INSERT INTO results (compound, recorded_measurement) VALUES
  ('[2H]C1([2H])C(C(=O)N2CC(=O)N3CCc4ccccc4C3C2)C([2H])([2H])C([2H])([2H])C([2H])([2H])C1([2H])[2H] (centres unmarked)', 51.6),
  ('O=C(C1CCCCC1)N1CC(=O)N2CCc3ccccc3C2C1 (centres unmarked) [Praziquantel, reference compound]', 43.8),
  ('[2H]C1([2H])C([2H])([2H])C([2H])([2H])C([2H])(C(=O)N2CC(=O)N3CCc4ccccc4C3C2)C([2H])([2H])C1([2H])[2H] (centres unmarked)', 50.6),
  ('[2H]C1([2H])CCC(C(=O)N2CC(=O)N3CCc4ccccc4C3C2)CC1 (centres unmarked)', 53.9);

Now turn to the next compound.
Item [2H]C1([2H])CC(C(=O)N2CC(=O)N3CCc4ccccc4C3C2)CC([2H])([2H])C1([2H])[2H] (centres unmarked) has what recorded half-life at 1 μM? 53.5
